TESTED SYSTEM: GABA-A receptor; anion channel
ASSAY PROCEDURE: In vitro affinity for BZD site on GABA-A receptor from rat cerebral cortex using radioligand [3H]flunitrazepam
Format: tissue-based
pIC50: −log10 of the molar value.
Below, each entry is listed with its recorded pIC50.
MEASURED QUANTITY: pIC50

                                    compound  observed_result
 0  O=C1CCN2C(=C1C(=O)Nc1ccccc1F)N(CCc1ccccn1)c1cc(F)ccc12             9.05
 1  N=C(N)NCCN1C2=C(C(=O)Nc3ccccc3F)C(=O)CCN2c2ccc(F)cc21             8.25
 2  CCOCCCN1C2=C(C(=O)Nc3ccccc3F)C(=O)CCN2c2ccc(F)cc21             9.52
 3  CCOCN1C2=C(C(=O)Nc3ccc(C)s3)C(=O)CCN2c2ccc(F)cc21             9.15
 4  CCOCN1C2=C(C(=O)Nc3c(F)cccc3F)C(=O)CCN2c2ccc(F)cc21             9.22
 5  O=C1CCN2C(=C1C(=O)Nc1ccccc1F)N(CC1CCCO1)c1cc(F)ccc12 (centres undefined)             8.64
 6  CCOCN1C2=C(C(=O)Nc3ccccc3F)C(=O)CCN2c2c1ccc(F)c2F             6.90
 7  CCOCN1C2=C(C(=O)Nc3ccsc3)C(=O)CCN2c2ccc(F)cc21             9.00
 8  CN(C)/C=N/CCN1C2=C(C(=O)Nc3ccccc3F)C(=O)CCN2c2ccc(F)cc21             7.46
 9  COC(=O)OCCN1C2=C(C(=O)Nc3ccccc3F)C(=O)CCN2c2ccc(F)cc21             9.52
10  CN(C)c1ccc(CCN2C3=C(C(=O)Nc4ccccc4F)C(=O)CCN3c3ccc(F)cc32)cc1             8.07
11  CCOCN1C2=C(C(=O)Nc3ccccc3F)C(=O)CCN2c2cc3ccccc3cc21             8.66
12  COCCOCN1C2=C(C(=O)Nc3ccccc3F)C(=O)CCN2c2ccc(F)cc21             9.10
13  CCOCN1C2=C(C(=O)Nc3ccc(F)cc3F)C(=O)CCN2c2ccc(F)cc21             8.92
14  CC(=O)OCCN1C2=C(C(=O)Nc3ccccc3F)C(=O)CCN2c2ccc(F)cc21             9.70
15  O=C1CCN2C(=C1C(=O)Nc1ccccc1F)N(CCCO)c1cc(F)ccc12             8.96
16  COCCNCCN1C2=C(C(=O)Nc3ccccc3F)C(=O)CCN2c2ccc(F)cc21             8.13
17  NCCN1C2=C(C(=O)Nc3ccccc3F)C(=O)CCN2c2ccc(F)cc21             8.29
18  CN(C)CCN1C2=C(C(=O)Nc3ccccc3F)C(=O)CCN2c2ccc(F)cc21             7.30
19  O=C1CCN2C(=C1C(=O)Nc1ccccc1F)N(CCn1ccnc1)c1cc(F)ccc12             8.80
20  CCOCN1C2=C(C(=O)Nc3ccc(OC)cc3F)C(=O)CCN2c2ccc(F)cc21             9.40
21  CCOCN1C2=C(C(=O)Nc3ccc(OC(=O)OC)cc3F)C(=O)CCN2c2ccc(F)cc21             8.37
22  O=C1CCN2C(=C1C(=O)Nc1ccccc1F)N(CCO)c1cc(F)ccc12             8.92
23  CCOCN1C2=C(C(=O)Nc3ccccc3F)C(=O)CCN2c2ccc(Cl)cc21             9.30
